Test system: SIV integrase Q124R (SIV IN RTV pseudovirus)
Assay Text: organism not typed
Type: cell-based
Condition Notes: HEK293
pEC50: −log10 of the molar value.
Recorded pEC50 values for a group of compounds are listed next.
Property Name: pEC50

INSERT INTO assay_data (compound, result_value) VALUES
  ('Cc1nnc(C(=O)NC(C)(C)c2nc(C(=O)NCc3ccc(F)cc3)c(O)c(=O)n2C)o1 [RAL, raltegravir]', 8.34),
  ('O=C1Nc2ccc(Cl)cc2[C@@](C#CC2CC2)(C(F)(F)F)O1 [EFV, efavirenz]', 9.15),
  ('C[C@@H]1CCO[C@H]2Cn3cc(C(=O)NCc4ccc(F)cc4F)c(=O)c(O)c3C(=O)N12 [DTG, dolutegravir]', 8.79),
  ('C[C@H]1CO[C@@H]2Cn3cc(C(=O)NCc4ccc(F)cc4F)c(=O)c(O)c3C(=O)N12 [CAB, cabotegravir]', 8.91),
  ('O=C(NCc1c(F)cc(F)cc1F)c1cn2c(c(O)c1=O)C(=O)N1[C@H]3CC[C@H](C3)O[C@@H]1C2 [BIC, bictegravir]', 8.83),
  ('COc1cc2c(cc1Cc1cccc(Cl)c1F)c(=O)c(C(=O)O)cn2[C@H](CO)C(C)C [EVG, elvitegravir]', 8.80);

The reported measurements were obtained from paper PMC6494879.
